Give measured pEC50 for each item. Keep answers brief.
Target: S1P1/EDG1 (Homo sapiens, UniProt P21453)
Sequence (P21453 whole entry): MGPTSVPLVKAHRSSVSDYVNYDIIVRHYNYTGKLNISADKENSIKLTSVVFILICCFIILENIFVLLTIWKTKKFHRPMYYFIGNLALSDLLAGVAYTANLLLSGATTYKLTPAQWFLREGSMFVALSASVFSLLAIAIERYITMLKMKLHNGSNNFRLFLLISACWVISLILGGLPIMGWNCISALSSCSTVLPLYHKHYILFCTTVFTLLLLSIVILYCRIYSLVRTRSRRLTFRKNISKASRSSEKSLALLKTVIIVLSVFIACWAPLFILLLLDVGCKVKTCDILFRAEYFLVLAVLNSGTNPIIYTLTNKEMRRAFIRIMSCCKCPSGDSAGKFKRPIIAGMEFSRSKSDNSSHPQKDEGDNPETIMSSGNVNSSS
Assay: S1P1 CRE-bla CHOK1 reporter assay, inhibition of Forskolin induced cAMP
Format: cell-based
Settings: agonist activity range; S1P1 CRE-bla CHOK1 cells, 2 μM Forskolin; read-out: S1P1 ACTIVITY
pEC50: −log10 of the molar value.

// CC(C)Oc1ccc(-c2ncc(-c3cccc4c3CC[C@H]4NC(=O)N3CC[C@@H](N(C)C)C3)s2)cc1C#N [Compound 183] : pEC50 value = 8.30 to 9.30

// CC(C)Oc1ccc(-c2nnc(-c3cccc4c3CCC[C@H]4NCc3ncc[nH]3)s2)cc1C#N [Compound 265] : pEC50 value = 8.30 to 9.30

// CC(C)Oc1ccc(-c2nnc(-c3cccc4c3CCC[C@H]4NC(=O)c3ccccn3)s2)cc1C#N [Compound 235] : pEC50 value = 8.30 to 9.30

// CC(C)Oc1ccc(-c2ncc(-c3cccc4c3CC[C@H]4NS(=O)(=O)CCN3CC[C@H](N)C3)s2)cc1C#N [Compound 136] : pEC50 value = < 8.30

// CC(C)Oc1ccc(-c2ncc(-c3cccc4c3CCC[C@H]4NS(N)(=O)=O)s2)cc1C#N [Compound 277] : pEC50 value = 9.30 to 10.30

// CC(C)Oc1ccc(-c2nnc(-c3cccc4c3CC[C@H]4NC(=O)N3CCOCC3)s2)cc1C#N [Compound 58] : pEC50 value = 9.30 to 10.30

// CC(C)Oc1ccc(-c2nnc(-c3cccc4c3CCC[C@H]4NCCS(C)(=O)=O)s2)cc1C#N [Compound 296] : pEC50 value = 9.30 to 10.30

----------
Give measured pEC50 for each item. Keep answers brief.
Biological target: S1P4 (Homo sapiens, UniProt O95977)
Construct: Tango fusion: TEV protease site plus GAL4-VP16 transcription factor (own knowledge of the Tango format)
Sequence (O95977 whole entry, the tested form may be a part): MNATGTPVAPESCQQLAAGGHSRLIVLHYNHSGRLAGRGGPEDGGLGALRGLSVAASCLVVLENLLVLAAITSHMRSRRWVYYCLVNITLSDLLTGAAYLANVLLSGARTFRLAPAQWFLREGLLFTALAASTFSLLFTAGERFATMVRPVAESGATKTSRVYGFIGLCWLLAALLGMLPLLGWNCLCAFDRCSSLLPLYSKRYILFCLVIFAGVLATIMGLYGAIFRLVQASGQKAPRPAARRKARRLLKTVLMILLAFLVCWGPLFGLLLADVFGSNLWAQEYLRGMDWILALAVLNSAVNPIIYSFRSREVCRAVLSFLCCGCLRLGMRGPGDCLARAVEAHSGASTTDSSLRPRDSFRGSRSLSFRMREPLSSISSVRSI
Test: Specificity over other S1P receptors: S1P4-bla TANGO U2OS
Conditions: without Forskolin, read-out: S1P4 agonist value (EC50)
pEC50: −log10 of the molar value.

// CC(C)Oc1ccc(-c2ncc(-c3cccc4c3CC[C@H]4NC(=O)N3CCOCC3)s2)cc1C#N [Compound 186] : pEC50 value = < 5.00

// CC(C)Oc1ccc(-c2nnc(-c3cccc4c3CC[C@H]4NC(=O)N3CC[C@@H](N(C)C)C3)s2)cc1C#N [Compound 56] : pEC50 value = < 5.00

// CC(C)Oc1ccc(-c2nnc(-c3cccc4c3CC[C@H]4NC(=O)N3CCOCC3)s2)cc1C#N [Compound 58] : pEC50 value = < 5.00

// CC(C)Oc1ccc(-c2nnc(-c3cccc4c3CCC4NS(=O)(=O)CC(=O)N(C)C)s2)cc1C#N (stereo in doubt) [Compound 43] : pEC50 value = < 5.00

// CC(C)Oc1ccc(-c2ncc(-c3cccc4c3CC[C@H]4NS(N)(=O)=O)s2)cc1C#N [Compound 166] : pEC50 value = 6.13

// CC(C)Oc1ccc(-c2ncc(-c3cccc4c3CC[C@H]4NC(=O)N3CCCC3)s2)cc1C#N [Compound 172] : pEC50 value = < 5.00

----------
Biological target: S1P1/EDG1 (Homo sapiens, UniProt P21453)
Assay: S1P1 CRE-bla CHOK1 reporter assay, inhibition of Forskolin induced cAMP
Type: cell-based
Details: agonist activity range; S1P1 CRE-bla CHOK1 cells, 2 μM Forskolin; read-out: S1P1 ACTIVITY
Text: Generation of S1P1-Mediated Inhibition of cAMP Reporter Assay A mammalian expression plasmid containing S1P1/EDG1 cloned into pcDNA3.1 was purchased from Missouri S&T cDNA Resource Centre. […] S1P1/pcDNA3.1 was transfected into the CRE-bla CHO K1 (Invitrogen) cell line, and stable single cell clones were selected using standard techniques. S1P1 CRE-Bla CHOK1 Reporter Assay—Characterization of S1P1 Agonists […]
Structures can show the parent of a compound that is named as a salt.
Give measured EC50 for each item. Keep answers brief.

Bench note, S1P1/EDG1 (Homo sapiens, UniProt P21453): CC(C)Oc1ccc(-c2nnc(-c3cccc4c3CCC[C@@H]4NS(=O)(=O)CC(=O)O)s2)cc1C#N [Compound 288] , EC50 reads 0.05 to 0.5 nM

Bench note, S1P1/EDG1 (Homo sapiens, UniProt P21453): COCCS(=O)(=O)N[C@@H]1CCCc2c(-c3nnc(-c4ccc(OC(C)C)c(C#N)c4)s3)cccc21 [Compound 280] , EC50 reads 0.5 to 5 nM

Bench note, S1P1/EDG1 (Homo sapiens, UniProt P21453): CC(=O)N[C@@H]1CCCc2c(-c3nnc(-c4ccc(OC(C)C)c(C#N)c4)s3)cccc21 [Compound 231] , EC50 reads 0.05 to 0.5 nM

Bench note, S1P1/EDG1 (Homo sapiens, UniProt P21453): CC(C)Oc1ccc(-c2nnc(-c3cccc4c3CC[C@H]4NC(=O)N3CCC[C@H](O)C3)s2)cc1C#N [Compound 61] , EC50 reads 0.05 to 0.5 nM

Bench note, S1P1/EDG1 (Homo sapiens, UniProt P21453): CC(C)Oc1ccc(-c2ncc(-c3cccc4c3CC[C@H]4NS(=O)(=O)CCO)s2)cc1C#N [Compound 164] , EC50 reads 0.05 to 0.5 nM

Bench note, S1P1/EDG1 (Homo sapiens, UniProt P21453): COCCN[C@@H]1CCc2c(-c3cnc(-c4ccc(OC(C)C)c(C#N)c4)s3)cccc21 [Compound 93] , EC50 reads 0.5 to 5 nM

Bench note, S1P1/EDG1 (Homo sapiens, UniProt P21453): CC(C)Oc1ccc(-c2nnc(-c3cccc4c3CCC[C@@H]4NCc3ccccn3)s2)cc1C#N [Compound 272] , EC50 reads 0.5 to 5 nM

Bench note, S1P1/EDG1 (Homo sapiens, UniProt P21453): CNC(=O)CS(=O)(=O)N[C@H]1CCCc2c(-c3nnc(-c4ccc(OC(C)C)c(C#N)c4)s3)cccc21 [Compound 295] , EC50 reads 0.05 to 0.5 nM

Bench note, S1P1/EDG1 (Homo sapiens, UniProt P21453): CC(C)Oc1ccc(-c2ncc(-c3cccc4c3CC[C@H]4NC(=O)N3CCC(CC(=O)O)CC3)s2)cc1C#N [Compound 200] , EC50 reads 0.05 to 0.5 nM

Bench note, S1P1/EDG1 (Homo sapiens, UniProt P21453): CC(C)Oc1ccc(-c2nnc(-c3cccc4c3CC[C@H]4NCC(=O)N3CCCC3)s2)cc1C#N [Compound 39] , EC50 reads 0.05 to 0.5 nM

Bench note, S1P1/EDG1 (Homo sapiens, UniProt P21453): COCC(=O)N[C@@H]1CCc2c(-c3cnc(-c4ccc(OC(C)C)c(C#N)c4)s3)cccc21 [Compound 75] , EC50 reads 0.05 to 0.5 nM

Bench note, S1P1/EDG1 (Homo sapiens, UniProt P21453): CC(C)Oc1ccc(-c2ncc(-c3cccc4c3CC[C@@H]4NS(=O)(=O)CCN3CC[C@@H](O)C3)s2)cc1C#N [Compound 131] , EC50 reads 0.5 to 5 nM

Bench note, S1P1/EDG1 (Homo sapiens, UniProt P21453): CC(C)Oc1ccc(-c2ncc(-c3cccc4c3CC[C@H]4NC(=O)[C@H](N)CO)s2)cc1C#N [Compound 80] , EC50 reads 0.05 to 0.5 nM

Bench note, S1P1/EDG1 (Homo sapiens, UniProt P21453): CC(C)Oc1ccc(-c2ncc(-c3cccc4c3CC[C@H]4NCC(=O)N3CC[C@H](O)C3)s2)cc1C#N [Compound 102, hydrochloride] , EC50 reads 0.05 to 0.5 nM

Bench note, S1P1/EDG1 (Homo sapiens, UniProt P21453): CC(C)Oc1ccc(-c2ncc(-c3cccc4c3CC[C@H]4NS(=O)(=O)CCN3CCC[C@@H](O)C3)s2)cc1C#N [Compound 143] , EC50 reads 0.5 to 5 nM

Bench note, S1P1/EDG1 (Homo sapiens, UniProt P21453): CCOC(=O)CCS(=O)(=O)N[C@H]1CCCc2c(-c3nnc(-c4ccc(OC(C)C)c(C#N)c4)s3)cccc21 [Compound 286] , EC50 reads 0.05 to 0.5 nM

Bench note, S1P1/EDG1 (Homo sapiens, UniProt P21453): CC(C)Oc1ccc(-c2nnc(-c3cccc4c3CCC[C@H]4NCCN(C)C)s2)cc1C#N [Compound 274] , EC50 reads 0.5 to 5 nM

Bench note, S1P1/EDG1 (Homo sapiens, UniProt P21453): CC(C)Oc1ccc(-c2nnc(-c3cccc4c3CCC4NS(=O)(=O)CCN3CC[C@@H](O)C3)s2)cc1C#N (stereo in doubt) [Compound 38] , EC50 reads 0.5 to 5 nM

Bench note, S1P1/EDG1 (Homo sapiens, UniProt P21453): CC(C)Oc1ccc(-c2nnc(-c3cccc4c3CC[C@H]4NC(=O)N3CC[C@@H](N(C)C)C3)s2)cc1C#N [Compound 56] , EC50 reads 0.05 to 0.5 nM

Bench note, S1P1/EDG1 (Homo sapiens, UniProt P21453): CNCCC(=O)N[C@@H]1CCCc2c(-c3nnc(-c4ccc(OC(C)C)c(C#N)c4)s3)cccc21 [Compound 260] , EC50 reads 0.5 to 5 nM

Bench note, S1P1/EDG1 (Homo sapiens, UniProt P21453): CC(C)Oc1ccc(-c2ncc(-c3cccc4c3CC[C@H]4NS(=O)(=O)CCN(C)C)s2)cc1C#N [Compound 123] , EC50 reads 0.5 to 5 nM

Bench note, S1P1/EDG1 (Homo sapiens, UniProt P21453): CC(C)Oc1ccc(-c2ncc(-c3cccc4c3CCC[C@H]4N)s2)cc1C#N [Compound 230, hydrochloride] , EC50 reads 0.5 to 5 nM

Bench note, S1P1/EDG1 (Homo sapiens, UniProt P21453): COCCS(=O)(=O)N[C@@H]1CCc2c(-c3cnc(-c4ccc(OC(C)C)c(C#N)c4)s3)cccc21 [Compound 116] , EC50 reads 0.5 to 5 nM

Bench note, S1P1/EDG1 (Homo sapiens, UniProt P21453): CC(C)Oc1ccc(-c2ncc(-c3cccc4c3CC[C@H]4NCC(=O)N3CCNCC3)s2)cc1C#N [Compound 107] , EC50 reads 0.5 to 5 nM

Bench note, S1P1/EDG1 (Homo sapiens, UniProt P21453): CC(C)Oc1ccc(-c2ncc(-c3cccc4c3CC[C@H]4NS(=O)(=O)CCN3CC[C@@H](O)C3)s2)cc1C#N [Compound 133] , EC50 reads 0.5 to 5 nM
